Molecular target: T1, UNK ZnF1-3 (human, UniProt Q9C0B0 31-174)
T1 sequence: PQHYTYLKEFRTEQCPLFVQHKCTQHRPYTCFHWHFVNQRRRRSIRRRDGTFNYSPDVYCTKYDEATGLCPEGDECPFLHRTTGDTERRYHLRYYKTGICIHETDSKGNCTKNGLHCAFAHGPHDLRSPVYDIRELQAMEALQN
Assay: nsRBNS (natural sequence RNA bind-n-seq); RBNS binding buffer (assumed for nsRBNS): 25 mM Tris pH 7.5, 150 mM KCl, 3 mM MgCl2, 0.01% Triton X-100, 500 ug/ml BSA, 20 U/ml SUPERase-In, 4 C; UNK is unkempt and MSI1 is Musashi-1; names of the RNAs are library labels; protein concentration not given here; high values mean tight binding
In all, about 24,000 sequences were measured (“enrichment r”: median about 0.99, highest 2% from about 3.7 on). Many of the other results were omitted from the sample, so the highest values are more common in it than they were.
experimentalEndpoint: binding signal (enrichment R)

binder	experimentalEndpoint	assayResult
chr16:57153313:57153314:+_ENSMUSG00000022752_ENSMUST00000166897|mus_mus|motif|central (ssRNA) RNA: GGGAGUUCUACAGUCCGACGAUCCAAAAAAAAUUAAAAAGGAUUAAUUGAAUACAAAAGAAGUAUAUUUUACAGCACUUACGGUGUUAAAAACUAACAUACUAUAAAAUACUCACAUAUUAUACAAACAGCUAUAAAAAAACACAACAGAGGAUUGAGCAUCA	binding signal	3.65
chr1:60041781:60041782:+_ENSMUSG00000041040_ENSMUST00000036540|mus_hu|FALSE|FALSE (ssRNA) RNA: GGGAGUUCUACAGUCCGACGAUCAAGUUUACAAUAGUAAAGUAAAUGCAGUAGUGGCAAAUUUUCUUUUAUUUUCCUUCACAAAAGAAAAUCUUUAUAACCCAGUCCUAGUCUUGGACAUAGUGAAAGCUAUAAAUUCUGACUCAACAGAGGAUUGAGCAUCA	binding signal	0.593
chr5:40767622:40767623:-_ENSG00000132356_ENST00000397128|hu_mus|hu_hu_hu_mus_False|38_48 (ssRNA) RNA: GGGAGUUCUACAGUCCGACGAUCAUCUUUUAUUGCGGCCCUCUUCAUGGGAUCCACCUGCAGCAUAUGUUUCAAAAGGCUGAUUACAGAAGGAUUUAAAUAUUGAGGGGUAUAAAAGAUCCCAUCACAUAUCUUCUUAAAAAGCAACAGAGGAUUGAGCAUCA	binding signal	1.64
